assay: Pharmacokinetic analyses (plasma, non-compartmental); assay type: in vivo, human (patients); settings: human, plasma, oral, Foretinib D28; DL1 foretinib 30 mg + erlotinib 100 mg daily; N=7
Outcome Measure: AUC(0-t) (ng·h/mL)
Give the quantity in ng·h/mL, number only.

Reported AUC(0-t) for COc1cc2c(Oc3ccc(NC(=O)C4(C(=O)Nc5ccc(F)cc5)CC4)cc3F)ccnc2cc1OCCCN1CCOCC1 [foretinib] : what is it?
728
